These entries and their values trace back to patent US7119091B2.

target: human CCR2-expressing cell, human monocyte cell strain THP-1 (Homo sapiens); construct: A human CCR2-expressing cell, e.g., a human monocyte cell strain THP-1 (ATCC No. TIB-202); experiment: Inhibition test on the binding of MCP-1 to CCR2 (MCP-1-induced transient increase of Ca ion); settings: inhibition of Ca2+ transient increase induced by 30 nM recombinant human MCP-1 in THP-1 cells
Sequence (P41597 1-360 isoform P41597-2): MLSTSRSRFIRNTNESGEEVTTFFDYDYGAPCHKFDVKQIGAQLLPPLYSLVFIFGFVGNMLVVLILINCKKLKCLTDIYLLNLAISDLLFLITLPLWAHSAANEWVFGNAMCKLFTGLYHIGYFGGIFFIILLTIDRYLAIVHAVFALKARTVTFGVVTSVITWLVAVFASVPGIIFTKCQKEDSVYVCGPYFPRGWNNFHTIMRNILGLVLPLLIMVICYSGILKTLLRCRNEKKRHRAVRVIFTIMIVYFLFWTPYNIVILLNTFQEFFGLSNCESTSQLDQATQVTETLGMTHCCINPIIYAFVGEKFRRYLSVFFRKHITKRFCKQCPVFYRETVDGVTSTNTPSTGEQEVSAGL
reported_property: IC50

query_smiles=CCCN1C(=O)[C@H](CCCCNC(=O)OCc2ccccc2)NC(=O)C12CCN(CCc1ccccc1)CC2 result="3 µM"
